Reported melting point by item:

Sample answers from the record:
S=c1[nH]c2ccccc2cc1-c1ccccc1 ... 242 to 244 °C
CCCCCCCCOC(=O)c1cnc(C(=O)O)cn1 ... 142 to 143 °C

Request: Returns the measured melting point for the input compound. Input: CCOC(=O)[C@H](Cc1c[nH]c2ccccc12)NC(=O)OCc1ccccc1
Response: 80 to 83 °C

Request: Which measured melting point value corresponds to CNc1nc(-c2ccc(OC)cc2)c(-c2cccnc2)s1 ?
Response: 158 to 159 °C

Request: // returns reported melting point for input COC(=O)c1cnn(OCCCC2OCCO2)c1
Response: 40 to 42 °C

###

measuredMetric: melting point

Previously resolved entries follow.
COC(=O)c1cccc(-c2c(C)c(C(=O)c3ccc(N)c(C(=O)OC)c3)n3ccccc23)c1 ... 232 °C
O=C(O)c1c(-c2ccc(F)c(Cl)c2)c2ccccc2n1Cc1cc2c(cc1Cl)OCO2 ... 210 to 211 °C
COP(=O)(OC)C(O)=Cc1ccc2c(c1)C(=O)Cc1ccccc1O2 ... 118 °C

Request: Data request, read-out melting point, for COC(=O)c1cccc(C(=O)OC)c1S(=O)(=O)NC(=O)Nc1nc(OC)cc(OC)n1
Response: 164 to 167 °C

Request: Entry CCCCCCCCCCCCCCCCCC(=O)Oc1cc(C)c(O)c(C(C)(C)C)c1 has what melting point?
Response: 64 to 65.5 °C

###

measuredMetric: melting point

Some compounds with recorded melting point:
NS(=O)(=O)c1ccc(-c2cnn(C=C(F)C(F)F)c(=O)c2-c2ccc(F)cc2)cc1 ... 190 to 193 °C
COC(=O)c1sc(-c2ccc(C#N)cc2)nc1C ... 186 to 187 °C
CNC(=O)C1Cc2c(n(C)c3ccc(OCc4ccccc4)cc23)C1 (stereo unspecified) ... 176 to 177 °C
COc1cc(C(=O)N2CCC(CCN3CCC(C(=O)c4nc5ccccc5n4Cc4ccccn4)CC3)(c3ccc(Cl)c(Cl)c3)C2)cc(OC)c1OC (stereo unspecified) ... 110 to 115 °C
CS(=O)(=O)c1ccc(-c2cnn(-c3ccc(Oc4ccccc4)cc3)c(=O)c2-c2ccc(F)cc2)cc1 ... 118 to 125 °C

Request: What value of melting point has been recorded for this entry: COc1ccc(N2CCOCC2)cc1NC(=O)c1ncc[nH]1
Response: 227 to 230 °C

Request: Entry Nc1nc(O)c2cc(CCc3ccc(C(=O)O)cc3)cnc2n1 : reported melting point = ?
Response: > 300 °C

Request: Would you kindly share the measured melting point for CCc1cc2ccccn2c1 ?
Response: 42 to 44 °C

Request: May I ask what melting point has been recorded for Nc1nnc(-c2cccc(F)c2F)c(N)n1 ?
Response: 229 to 230 °C

Request: Data request, read-out melting point, for CCOC(=O)c1c[nH]c2cc(C)cc(O)c12
Response: 152 to 154 °C

Request: Quick one: melting point for CN(CCOc1ccc2c(c1)OC(C)(C)C=C2c1ccc2ccccc2c1)Cc1ccccc1 ?
Response: 112 to 115 °C

Request: Fill in the blank: the reported melting point of O=S(=O)(Cl)c1nc2ccccn2n1 is ____.
Response: 116 to 118 °C

###

measuredMetric: melting point

Known results for molecules:
COC(=O)N=P(c1ccccc1)(c1ccccc1)c1ccccc1 ... 138 to 139 °C
COc1ccc2c(c1)C(=O)N(c1ccc3c(c1)n(C)c(=O)n3C)C2 ... 268 to 270 °C
O=C(NCc1ccc2ccn(C3CCN(CCc4ccc(F)cc4)CC3)c2c1)C1CC1 ... 116 to 117 °C
Cc1cn(C(C)(C)C(=O)N(C)C)nc1-c1ccc(Cl)cc1Cl ... 110 to 111 °C
CCNC(=O)N1CCc2cc(S(=O)(=O)N3CC(c4ccccc4)NC3=O)ccc21 (centres undefined) ... 127 °C
Cc1cc(OCc2coc(C=Cc3ccc(OC(F)(F)F)cc3)n2)ccc1COCCn1ccnn1 ... 84 to 85 °C
COC12CC(c3nnc(-c4cncc(Br)c4)o3)CN(C)C1Cc1c[nH]c3cccc2c13 (centres undefined) ... 155 to 157 °C
O=C(NCc1cccs1)C12CC3CC(CC1C3)C2 ... 143 to 145 °C

Would you kindly look at the next entry?
Request: What value of melting point has been reported for the following molecule? CNc1ccc(C(=O)Nc2ccccc2[N+](=O)[O-])cc1
Response: 187 °C

Entry source: a melting point compilation (Tetko et al.; mined from patent text by program, amines drawn as free bases though some values may be those of a salt)
